Value source: paper PMC6021681

- Tested on: DENV-4 strain Dominica 814669
- test-summary: DENV replication in Huh7 cells, RT-qPCR
- Type: cell-based, dengue virus
- settings: RT-qPCR at 48 h postinfection
parameter-measured: pEC50
Scale: pEC50 equals -log10([C]), with [C] in mol/L.

State, in one line, measured pEC50 of CSc1ccccc1C1CCCN1C(=O)C(NC(=O)NCc1ccc(N)cc1)c1ccccc1 (stereo not shown) 5.14

----------
- Test system: YFV strain Dakar HD 1279
- Format: cell-based, yellow fever virus
- settings: Huh7 cells, RT-qPCR at 48 h postinfection; read-out: EC50, YFV replication
parameter-measured: EC50 (µM)
Write it as a number; the unit µM goes unstated.

State, in one line, measured EC50 of CSc1ccccc1C1CCCN1C(=O)C(NC(=O)NCc1ccc(N)cc1)c1ccccc1 (stereo not shown) 27.2
